Source listed as PubChem BioAssay AID1159580.

# assay.method.text: chemical genetic growth profiling, strain panel (AID 1159580);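 further: tested at 20 µM; growth read once vehicle control cultures reached saturation at 30 °C; 1 = growth at the plate median or of vehicle wells; lower values mean less growth of the strain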
# measurement.conditions: S. cerevisiae deletion strains, growth OD, locus YDR502C, strain sam2
The whole screen tested about 5,500 compounds, of which about 2,000 (36%) were called active. Roughly 18% stayed inconclusive and do not appear here. No stated cut-off is given here; in the data, active means normalized growth mostly below about 0.91 (no sharp cut-off); inconclusive means no clear call, values can overlap the other calls; inactive means mostly above about 0.92. This is one part of the list.
API: response.call in true (1) = active, false (0) = inactive

Examples with answers:
{"columns": ["compound", "class.assignment"],
 "data": [
  ["CCCCC(CC)CN1CN(CC(CC)CCCC)CC(C)(N)C1 (configuration not stated)", "true (1)"],
  ["O=C1CCCC2C3CC(CN12)[C@@H]1CCCCN1C3 (some centres not stated)", "false (0)"],
  ["Cc1occc(=O)c1O", "false (0)"]
]}

What did the test return for `C1CNCCN1` ?
false (0)

Query: recorded result category for `Nc1ccc(S(=O)(=O)Nc2ccccn2)cc1` in this test
false (0)

Status in this test for CCCC(C)C1(CC)C(=O)NC(=O)NC1=O (configuration not stated) ?
false (0)

Check the results log: what was the call for `c1ccc2c(c1)cc1ccc3cccc4ccc2c1c34` ?
false (0)

Just curious, what result did `CC(=O)Nc1ccc(S(=O)(=O)Nc2ccc([N+](=O)[O-])cc2)cc1` get here?
false (0)

Please indicate how the test categorized `Cc1ccc2cc3c(ccc4ccccc43)c3c2c1CC3` .
true (1)

Recorded call for CC(=O)O[C@@H]1CC2C(C)(C)C(=O)CC[C@]2(C)C2CC[C@]3(C)C(=CC(=O)O[C@H]3c3ccoc3)[C@@]21C (some centres not stated) ?
false (0)

Per the records of this test, what outcome belongs to CN1C(CC(=O)c2ccccc2)CCCC1CC(O)c1ccccc1 (configuration not stated) ?
false (0)

# fetch the recorded call for CC(C)NCC(O)c1ccc2ccccc2c1 (configuration not stated) here
false (0)

----------
Assign normalized growth to each entry below.
# assay.method.text: chemical genetic growth profiling, strain panel (AID 1159580)
# measurement.conditions: S. cerevisiae deletion strains, growth OD, locus YNL271C, strain bni1, active compounds read low
Among all 5,500 compounds or so, about 2,000 (36%) were called active. Roughly 18% stayed inconclusive and do not appear here. The list shows a part of the results.
Answers are plain numbers.

// below: answered compounds
{"columns": ["compound", "measured.property", "assay.result"],
 "data": [
  ["C=C[C@](C)(O)CCC=C(C)C", "normalized growth", 1.01],
  ["CCCCC(CC)CN1CN(CC(CC)CCCC)CC(C)(N)C1 (centres undefined)", "normalized growth", 0.997],
  ["CCC[C@H]1CC2=C(C[C@@H](CC)CC3=C1C(=O)OC3=O)C(=O)OC2=O", "normalized growth", 0.845],
  ["O=[N+]([O-])c1cc(O)c(O)c([N+](=O)[O-])c1", "normalized growth", 0.978],
  ["CC(=O)Nc1cc([As](=O)(O)O)ccc1O", "normalized growth", 0.983],
  ["O=C(OC1Cc2c(O)cc(O)cc2OC1c1cc(O)c(O)c(O)c1-c1c(C2Oc3cc(O)cc(O)c3CC2OC(=O)c2cc(O)c(O)c(O)c2)cc(O)c(O)c1O)c1cc(O)c(O)c(O)c1 (centres undefined)", "normalized growth", 0.964]
]}

Each of the following entries comes with a recorded value; kindly state normalized growth for each.
1. O=[N+]([O-])c1ccc(O)c([N+](=O)[O-])c1
2. C=CC(C)(O)CC/C=C(\C)CCC=C(C)C (centres undefined)

0.31
1

Could I get normalized growth for every one of these entries?
1. O=[N+]([O-])c1cc([As](=O)(O)O)ccc1O
2. CN[C@H](CC(=O)O)C(=O)O
3. Nc1ncnc2c1ncn2C1C[C@H](O)[C@@H](CO)O1 (some centres undefined)
4. C1CCN2C[C@@H]3C[C@H](CN4CCCC[C@@H]34)[C@H]2C1
5. CC(C)=CCC[C@](C)(O)C1CC=C(C)CC1 (some centres undefined)
6. Cc1c(O)c(O)cc2c1CC=C1[C@@]2(C)CC[C@@]2(C)C3C[C@](C)(C(=O)O)CC[C@]3(C)CC[C@]12C (some centres undefined)

[0.532, 0.977, 0.992, 1.01, 0.988, 0.991]

----------
# assay.method.text: chemical genetic growth profiling, strain panel (AID 1159580)
# measurement.conditions: S. cerevisiae deletion strains, growth OD, locus YOR070C, strain gyp1
The campaign covered roughly 5,500 compounds. About 2,000 (36%) were called active. Inconclusive results (about 18%) are left out. Cut-off read from the data, not from the text of the source: active = normalized growth mostly below about 0.91 (no sharp cut-off); inconclusive = no clear call, values can overlap the other calls; inactive = mostly above about 0.92. The list shows a part of the results.
Tick one outcome: Yes = active, No = inactive

{"columns": ["molecule", "class.assignment"],
 "data": [
  ["C=C(NC(=O)C(=C)NC(=O)c1csc(C2=NC3c4csc(n4)C4NC(=O)c5csc(n5)C(C(C)(O)C(C)O)NC(=O)C5CSC(=N5)C(=CC)NC(=O)C(C(C)O)NC(=O)c5csc(n5)C3(CC2)NC(=O)C(C)NC(=O)C(=C)NC(=O)C(C)NC(=O)C(C(C)CC)NC2C=Cc3c(C(C)O)cc(nc3C2O)C(=O)OC4C)n1)C(N)=O (stereo not drawn)", "No"],
  ["O=C(NC(=O)c1c(F)cccc1F)Nc1ccc(Cl)cc1", "No"]
]}

What call does the record list for `O[N+]1=CC=CCC1=S.On1ccccc1=S.[Zn]` ?
Yes

----------
# assay.method.text: chemical genetic growth profiling, strain panel (AID 1159580);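 further: tested at 20 µM; growth read once vehicle control cultures reached saturation at 30 °C; 1 = growth at the plate median or of vehicle wells; lower values mean less growth of the strain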
# measurement.conditions: S. cerevisiae deletion strains, growth OD, locus YJL166W, strain qcr8, active compounds read low
Among all 5,500 compounds or so, about 2,000 (36%) were called active. About 18% were inconclusive and are not listed. This is one part of the list.
measured.property: normalized growth
Answers are plain numbers.

{"columns": ["compound", "measured.property", "assay.result"],
 "data": [
  ["Oc1c(Cl)cc(Cl)c2cccnc12", "normalized growth", 0.0623]
]}

Please state, for each entry, its recorded normalized growth.
1. C=CC(C)(O)CC/C=C(\C)CCC=C(C)C (centres undefined)
2. Oc1c(Br)cc(Br)c2cccnc12
3. C=C(NC(=O)C(=C)NC(=O)c1csc(C2=NC3c4csc(n4)C4NC(=O)c5csc(n5)C(C(C)(O)C(C)O)NC(=O)C5CSC(=N5)C(=CC)NC(=O)C(C(C)O)NC(=O)c5csc(n5)C3(CC2)NC(=O)C(C)NC(=O)C(=C)NC(=O)C(C)NC(=O)C(C(C)CC)NC2C=Cc3c(C(C)O)cc(nc3C2O)C(=O)OC4C)n1)C(N)=O (centres undefined)
4. Oc1ccc(Cl)c2cccnc12
5. CC(C)=CCC[C@](C)(O)C1CC=C(C)CC1 (some centres undefined)

1. 0.902
2. 0.0631
3. 1.02
4. 0.059
5. 0.989

Look up normalized growth for the entries below, preserving their order.
1. OC[C@@H]1CCCN2CCCC[C@H]12
2. CCN(CC)CCNC(=O)c1cc(S(C)(=O)=O)ccc1OC
3. OC[C@@H](O)[C@@H](O[C@@H]1O[C@H](CO)[C@@H](O)[C@H](O)[C@H]1O)[C@H](O)[C@@H](O)CO

[1.02, 0.931, 0.998]

----------
# assay.method.text: chemical genetic growth profiling, strain panel (AID 1159580);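 further: tested at 20 µM; growth read once vehicle control cultures reached saturation at 30 °C; 1 = growth at the plate median or of vehicle wells; lower values mean less growth of the strain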
# measurement.conditions: S. cerevisiae deletion strains, growth OD, locus YOR106W, strain vam3, active compounds read low
Screen size: about 5,500 compounds; about 2,000 (36%) were called active. Inconclusive results (about 18%) are left out. This is one part of the list.
Can you tell me normalized growth for the items I'm about to list?
Answers are plain numbers.

{"columns": ["compound", "measured.property", "assay.result"],
 "data": [
  ["O=C(NC(=O)c1c(F)cccc1F)Nc1ccc(Cl)cc1", "normalized growth", 1.01],
  ["O=C(O)c1ccccc1Nc1ccccc1", "normalized growth", 0.956],
  ["O[N+]1=CC=CCC1=S.On1ccccc1=S.[Zn]", "normalized growth", 0.0661],
  ["CCCCC(CC)CN1CN(CC(CC)CCCC)CC(C)(N)C1 (stereo not drawn)", "normalized growth", 0.0665],
  ["O=C1C=CC2=C3c4cc(O)c(O)cc4C[C@@]3(O)COC2=C1", "normalized growth", 0.931],
  ["C[C@H]1[C@H]2CCC3C4CC=C5C[C@@H](N(C)C)CC[C@]5(C)C4CC[C@@]32CN1C (stereo partly drawn)", "normalized growth", 1]
]}

The following compounds each have a reported value; give each one's normalized growth.
1. CC(C)(C)NC[C@@H](O)COc1nsnc1N1CCOCC1
2. CC(=O)c1c(O)c(C)c(O)c2c1OC1=CC(=O)C(C(C)=O)C(=O)C12C (stereo not drawn)

1. 1.03
2. 0.254

----------
# assay.method.text: chemical genetic growth profiling, strain panel (AID 1159580);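 further: tested at 20 µM; growth read once vehicle control cultures reached saturation at 30 °C; 1 = growth at the plate median or of vehicle wells; lower values mean less growth of the strain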
# measurement.conditions: S. cerevisiae deletion strains, growth OD, locus YMR078C, strain ctf18, active compounds read low
The campaign covered roughly 5,500 compounds. About 2,000 (36%) were called active. Roughly 18% stayed inconclusive and do not appear here. This is one part of the list.
measured.property: normalized growth

Examples from the recorded data:
{"columns": ["compound", "normalized growth"],
 "data": [
  ["CC(Cc1ccc(O)c(O)c1)C(C)Cc1ccc(O)c(O)c1 (stereo not drawn)", "0.973 (inactive)"],
  ["CSCCC(NC=O)C(=O)NC(C)C(=O)O (stereo not drawn)", "0.984 (inactive)"],
  ["C1CCN2CC3CC(CN4CCCCC34)C2C1 (stereo not drawn)", "1.02 (inactive)"],
  ["CC(=O)OC1CC(OC(C)=O)C2(C)C(CC(OC(C)=O)C3(C)C2CCC2(C)C(c4ccoc4)CC4OC423)C1(C)C (stereo not drawn)", "1.01 (inactive)"],
  ["CC(=O)NCCCCCC(=O)O", "1 (inactive)"]
]}

For every record below, what is its normalized growth?
1. O[N+]1=CC=CCC1=S.On1ccccc1=S.[Zn]
2. O=C1O[C@H](C(O)CO)C(O)=C1O (stereo partly drawn)
3. CC1(C)C(O)CC(O)C2(C)C1CC(O)C1(C)C2CCC2(C)C(c3ccoc3)CC3OC321 (stereo not drawn)
4. CN(C)CCOC(C)(c1ccccc1)c1ccccn1 (stereo not drawn)

0.0748 (active)
0.961 (inactive)
1.02 (inactive)
0.963 (inactive)

For every record below, what is its normalized growth?
1. C1CNCCN1
2. CC(=O)O[C@@H]1C[C@@]2(C)[C@H](c3ccoc3)C[C@H]3O[C@]32[C@]2(C)C(=O)C(O)=C3C(C)(C)C(=O)C=C[C@]3(C)C12 (stereo partly drawn)
3. C/C=C/c1ccc2c(c1)OCO2

1 (inactive)
0.925 (inactive)
1.01 (inactive)

Would you mind giving normalized growth for every compound in the list below?
1. COc1ccc(C(Cl)=C(c2ccc(OC)cc2)c2ccc(OC)cc2)cc1
2. Nc1ccc(C(=O)NCC(=O)O)cc1
3. N[C@@H](Cc1ccc(O)c(O)c1)C(=O)O
4. CC(=O)Oc1ccc(Cl)c2cccnc12
5. CC(=O)O[C@H]1C[C@@H](OC(C)=O)C(C)(C)C2C[C@@H](OC(C)=O)[C@@]3(C)C4=CC(=O)O[C@@H](c5ccoc5)[C@]4(C)CCC3[C@]21C (stereo partly drawn)
6. CC1(C)C(=O)C=CC2(C)C3CCC4(C)C(c5ccoc5)CC5OC54C3C(O)CC12 (stereo not drawn)

1: 1.03 (inactive); 2: 1.02 (inactive); 3: 0.995 (inactive); 4: 0.0737 (active); 5: 0.989 (inactive); 6: 1 (inactive)
